Values compiled from the supplement of paper PMC10567573.

B1: FAM189A2 (parent)
chain: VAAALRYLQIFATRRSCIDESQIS

Variants of: B1
Assay: protein stability index of a GFP-peptide fusion (GPS, HEK-293T) (PSI 1-6); higher = more stable;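 further: lentivirally expressed fusions sorted by FACS into six bins by GFP to DsRed ratio, PSI derived from sequencing read proportions per bin multiplied by bin number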
Conditions: c terminus: a fixed tail appended
measured-attribute: protein stability index
Form field (numeric): enter value without unit.

Before answering, review these 3 worked examples.
{"columns": ["sequence-code", "protein stability index"],
 "data": [
  ["MAAALRYLQIFATRRSCIDESQIS [V1M]", 1.95],
  ["VASALRYLQIFATRRSCIDESQIS [A3S]", 1.97],
  ["VAAALRYTQIFATRRSCIDESQIS [L8T]", 2.02]
]}

Tell me measured protein stability index for VPAALRYLQIFATRRSCIDESQIS [A2P] please.
2.46

Tell me measured protein stability index for VAQALRYLQIFATRRSCIDESQIS [A3Q] please.
1.8

Tell me measured protein stability index for VAAALRYLQIFATRRSEIDESQIS [C17E] please.
1.71

Tell me measured protein stability index for VAAAERYLQIFATRRSCIDESQIS [L5E] please.
1.87

Tell me measured protein stability index for VAAALRYLQIFCTRRSCIDESQIS [A12C] please.
2.17

Tell me measured protein stability index for VAAALRYLQWFATRRSCIDESQIS [I10W] please.
2.48

Tell me measured protein stability index for VAAALRYLQIHATRRSCIDESQIS [F11H] please.
2.04
